Every entry's value here was drawn from patent EP0908457B1.

- Tested on: Oryza sativa, (L.) Tebonnet
- experiment: Rice tolerance to post-transplant applications under flooded paddy conditions (Example 187), ORYSAT (Rice, Tebonnet); also: meaning of each grade not given here
- study.conditions: Rate 0.0320 kg/ha, rated three to four weeks after treatment
As shown below, each of these compounds has a reported herbicidal effect rating ORYSAT value.
readout: herbicidal effect rating ORYSAT

# compound, system.name, observed.result
rows = [
    ("Cn1c(C(F)(F)F)cc(=O)n(-c2ccc3snc(C(Cl)Br)c3c2)c1=O (stereo not shown) [Example 300]", "Oryza sativa, (L.) Tebonnet", 2.0),
    ("C#CCOC(=O)COc1ccc(OC)cc1-c1nsc2ccc(-n3c(=O)cc(C(F)(F)F)n(C)c3=O)cc12 [Example 349]", "Oryza sativa, (L.) Tebonnet", 4.0),
    ("Cn1c(C(F)(F)F)cc(=O)n(-c2ccc3snc(C(N)=O)c3c2)c1=O [Example 322]", "Oryza sativa, (L.) Tebonnet", 5.0),
    ("CC(O)c1nsc2ccc(-n3c(=O)cc(C(F)(F)F)n(C)c3=O)cc12 (stereo not shown) [Example 308]", "Oryza sativa, (L.) Tebonnet", 5.0),
    ("Cn1c(C(F)(F)F)cc(=O)n(-c2ccc3snc(COCc4ccc(Cl)cc4)c3c2)c1=O [Example 584]", "Oryza sativa, (L.) Tebonnet", 0.0),
    ("CC(Oc1ccccc1-c1nsc2ccc(-n3c(=O)cc(C(F)(F)F)n(C)c3=O)cc12)C(=O)NS(C)(=O)=O (stereo not shown) [Example 335]", "Oryza sativa, (L.) Tebonnet", 3.0),
    ("CONC(=O)COc1ccc(C)cc1-c1nsc2ccc(-n3c(=O)cc(C(F)(F)F)n(C)c3=O)cc12 [Example 316]", "Oryza sativa, (L.) Tebonnet", 4.5),
    ("CN(O)C(=O)COc1ccccc1-c1nsc2ccc(-n3c(=O)cc(C(F)(F)F)n(C)c3=O)cc12 [Example 336]", "Oryza sativa, (L.) Tebonnet", 2.0),
    ("Cn1c(C(F)(F)F)cc(=O)n(-c2ccc3snc(C(=O)O)c3c2)c1=O [Example 315]", "Oryza sativa, (L.) Tebonnet", 0.0),
    ("CC(=O)c1nsc2ccc(-n3c(=O)cc(C(F)(F)F)n(C)c3=O)cc12 [Example 307]", "Oryza sativa, (L.) Tebonnet", 5.0),
    ("Cn1c(C(F)(F)F)cc(=O)n(-c2ccc3snc(C(=O)NS(=O)(=O)c4ccc5ccccc5c4)c3c2)c1=O [Example 357]", "Oryza sativa, (L.) Tebonnet", 2.0),
    ("C[C@H](Br)[C@H](Br)c1nsc2ccc(-n3c(=O)cc(C(F)(F)F)n(C)c3=O)cc12 [Example 302]", "Oryza sativa, (L.) Tebonnet", 1.0),
    ("Cn1c(C(F)(F)F)cc(=O)n(-c2cc3c(CBr)nsc3cc2F)c1=O [Example 376]", "Oryza sativa, (L.) Tebonnet", 4.0),
    ("Cn1c(C(F)(F)F)cc(=O)n(-c2ccc3snc(C(C#N)=Cc4ccc(O)cc4)c3c2)c1=O [Example 600]", "Oryza sativa, (L.) Tebonnet", 3.0),
    ("CCS(=O)(=O)NC(=O)c1nsc2ccc(-n3c(=O)cc(C(F)(F)F)n(C)c3=O)cc12 [Example 383]", "Oryza sativa, (L.) Tebonnet", 3.5),
    ("Cn1c(C(F)(F)F)cc(=O)n(-c2ccc3snc(C(C)(Br)Br)c3c2)c1=O [Example 340]", "Oryza sativa, (L.) Tebonnet", 5.0),
    ("CNC.Cn1c(C(F)(F)F)cc(=O)n(-c2ccc3snc(CSCC(=O)NS(C)(=O)=O)c3c2)c1=O [Example 298]", "Oryza sativa, (L.) Tebonnet", 0.0),
    ("Cn1c(C(F)(F)F)cc(=O)n(-c2cc3c(CC#N)nsc3cc2F)c1=O [Example 379]", "Oryza sativa, (L.) Tebonnet", 7.0),
    ("Cn1c(C(F)(F)F)cc(=O)n(-c2ccc3snc(C(=O)NS(=O)(=O)c4ccccc4)c3c2)c1=O [Example 352]", "Oryza sativa, (L.) Tebonnet", 0.5),
    ("Cc1ccc(OCC(=O)NO)c(-c2nsc3ccc(-n4c(=O)cc(C(F)(F)F)n(C)c4=O)cc23)c1 [Example 313]", "Oryza sativa, (L.) Tebonnet", 0.0),
    ("Cn1c(C(F)(F)F)cc(=O)n(-c2ccc3snc(CSCC(=O)NS(C)(=O)=O)c3c2)c1=O [Example 297]", "Oryza sativa, (L.) Tebonnet", 0.0),
    ("Cc1ccc(C=C(C#N)c2nsc3ccc(-n4c(=O)cc(C(F)(F)F)n(C)c4=O)cc23)cc1 [Example 597]", "Oryza sativa, (L.) Tebonnet", 0.0),
]
